TEST_DESCRIPTION: qHTS assay for environmental chemicals that activate the Aryl hydrocarbon Receptor (AhR) signaling pathway (AID 651777); also: % of control where 0% means no effect; nearly all actives have a fitted effect of over 15% in size
ASSAY_CONTEXT: 1A2-DRE human hepatoma cells, luciferase, 24 h; active compounds read high
Results filed as inconclusive are left out.
QUANTITY_KIND: activation (%)

{"COMPOUND": "CCOP(=S)(NC(C)C)Oc1ccccc1C(=O)OC(C)C (stereo unspecified)", "REPORTED_VALUE": 4.48}
{"COMPOUND": "ClC1=C(Cl)C2(Cl)C3C4OC4C(Cl)C3C1(Cl)C2(Cl)Cl (stereo unspecified)", "REPORTED_VALUE": -0.371}
{"COMPOUND": "CC(Oc1ccc(Cl)cc1Cl)C(=O)O (stereo unspecified)", "REPORTED_VALUE": -1.09}
{"COMPOUND": "Cc1c(F)c(F)c(COC(=O)C2C(/C=C(\\Cl)C(F)(F)F)C2(C)C)c(F)c1F (stereo unspecified)", "REPORTED_VALUE": 0.802}
{"COMPOUND": "Cc1cc(C)nc(Nc2ccccc2)n1", "REPORTED_VALUE": 7.09}
{"COMPOUND": "O=C(O)C1C(C(=O)O)C2(Cl)C(Cl)=C(Cl)C1(Cl)C2(Cl)Cl (stereo unspecified)", "REPORTED_VALUE": 0.623}
{"COMPOUND": "COC[C@H](C)N(C(=O)CCl)c1c(C)csc1C", "REPORTED_VALUE": -2.7}
{"COMPOUND": "O=CNC(N1CCN(C(NC=O)C(Cl)(Cl)Cl)CC1)C(Cl)(Cl)Cl (stereo unspecified)", "REPORTED_VALUE": 0.502}
{"COMPOUND": "CCOP(=O)(OCC)SCS(=O)(=O)C(C)(C)C", "REPORTED_VALUE": 2.25}
{"COMPOUND": "O=C(O)[C@@H]1[C@H](C(=O)O)[C@@]2(Cl)C(Cl)=C(Cl)[C@]1(Cl)C2(Cl)Cl", "REPORTED_VALUE": 1.48}
{"COMPOUND": "O=[N+]([O-])c1ccc(Oc2ccc(C(F)(F)F)cc2[N+](=O)[O-])cc1", "REPORTED_VALUE": 9.12}

Provenance of the data: PubChem BioAssay (NCATS)
